# Assay Name: HILIC, Waters ACQUITY UPLC BEH Amide, 100 × 2.1 mm, 1.7 µm; A: water + 0.125% formic acid + 10 mM ammonium formate; B: 5% water + 95% acetonitrile + 0.125% formic acid + 10 mM ammonium formate; gradient (min/%B) 0/100 2/100 7.7/70 9.5/40 10.25/30 12.75/100 17/100
# Experimental Parameters: stereoisomer not certain

{"columns": ["Compound", "LC retention time"],
 "data": [
  ["CN1CCc2cc(Cl)c(O)cc2C(c2ccccc2)C1 (stereo not given)", "2.89 min"],
  ["NC(=O)C(N)Cc1c[nH]c2ccccc12 (stereo not given) [Tryptophanamide]", "5.91 min"],
  ["Cn1c(=O)c2c(ncn2C)n(C)c1=O", "1.21 min"],
  ["CC(C)(O)CC(=O)O [beta-Hydroxyisovaleric acid]", "4.55 min"],
  ["O=P(O)(O)OC1OC(CO)C(O)C(O)C1O (stereo not given) [Glucose-1-phosphate]", "9.61 min"],
  ["COc1ccccc1N1CCN(CC(O)COc2cccc3ccccc23)CC1 (stereo not given)", "1.99 min"],
  ["CC12CCC3C4CCC(=O)C=C4CCC3C1CCC2O (stereo not given)", "1.06 min"],
  ["CN(C)c1nc2c(ncn2C2OC(CO)C(O)C2O)c(=O)[nH]1 (stereo not given)", "5.62 min"],
  ["CS(=O)(=O)Nc1ccc(Cc2noc(-c3ccc4[nH]cc(CCN)c4c3)n2)cc1", "5.25 min"],
  ["CC(C)C(O)C(=O)O (stereo not given) [2-Hydroxy-3-methylbutyric acid]", "1.29 min"]
]}

---

Property: LC retention time; scope: individual compounds
# Assay Name: HILIC, Waters ACQUITY UPLC BEH Amide, 100 × 2.1 mm, 1.7 µm; A: water + 0.125% formic acid + 10 mM ammonium formate; B: 5% water + 95% acetonitrile + 0.125% formic acid + 10 mM ammonium formate; gradient (min/%B) 0/100 2/100 7.7/70 9.5/40 10.25/30 12.75/100 17/100
# Experimental Parameters: stereoisomer not certain
Endpoint Name: LC retention time (min)

{"columns": ["Compound", "Recorded Value"],
 "data": [
  ["CN(C)C(=N)N=C(N)N", 5.44],
  ["O=c1cccc[nH]1", 2.05],
  ["CCN(CC)CCN1C(=O)CN=C(c2ccccc2F)c2cc(Cl)ccc21", 2.41],
  ["CCN(CC)C(=O)C1(c2ccccc2)CC1CN (stereo not given)", 3.23],
  ["CC(C)(CO)C(O)C(=O)NCCC(=O)O (stereo not given)", 3.5],
  ["Nc1ncnc2c1[nH]c(=O)n2C1CC(O)C(CO)O1 (stereo not given)", 5.11],
  ["CNc1ncnc2c1ncn2C1OC(CO)C(O)C1O (stereo not given)", 3.56],
  ["Cc1onc(-c2ccccc2)c1-c1ccc(S(N)(=O)=O)cc1", 1.01],
  ["CC(C)CC(N)C(=O)N1CCCC1C(=O)O (stereo not given)", 7.32],
  ["COc1cc(-c2oc3cc(O)cc(O)c3c(=O)c2OC2OC(COC3OC(C)C(O)C(O)C3O)C(O)C(O)C2O)ccc1O (stereo not given) [Isorhamnetin-3-O-rutinoside]", 6.02],
  ["Cc1ccsc1C(=CCCN1CCCC(C(=O)O)C1)c1sccc1C (stereo not given)", 3.94],
  ["O=C(c1ccccc1)c1c(O)cc(O)cc1O", 1.34],
  ["O=C1CN=C(c2ccccc2)c2cc([N+](=O)[O-])ccc2N1", 1.2],
  ["O=C1CN2Cc3c(ccc(Cl)c3Cl)N=C2N1 [Anagrelide]", 1.82],
  ["O=C1C(CCC(O)c2ccc(F)cc2)C(c2ccc(O)cc2)N1c1ccc(F)cc1 (stereo not given)", 1.03],
  ["NCCP(=O)(O)O", 9.39],
  ["O=c1cc[nH]c(=O)[nH]1", 2.4],
  ["NCC(=O)O", 8.33],
  ["O=C(O)CNC(=O)c1ccco1", 4.01],
  ["CCCC(=O)OC(CC(=O)[O-])C[N+](C)(C)C [(R)-Butyrylcarnitine]", 5.77],
  ["CCCCCCCCCCCCCCCCCC(=O)OCC(O)CO (stereo not given)", 0.99],
  ["CCCC(=O)O", 10.2],
  ["O=C(O)c1cc(O)ccc1O", 3.18],
  ["Cc1ncc2n1-c1ccc(Cl)cc1C(c1ccccc1F)=NC2", 1.29],
  ["O=c1ccn(C2CCC(CO)O2)c(=O)[nH]1 (stereo not given)", 1.73],
  ["CN1CCC(=C2c3ccccc3CCc3sccc32)CC1", 2.33],
  ["CNC(Cc1cnc[nH]1)C(=O)O (stereo not given)", 9.47],
  ["C=C(C)C1CC=C(C)CC1 (stereo not given)", 0.92],
  ["C#CC1(O)CCC2C3CCc4cc(O)ccc4C3CCC21C (stereo not given)", 0.99],
  ["CC1CCCC(O)CCCCCc2cc(O)cc(O)c2C(=O)O1 (stereo not given)", 1.11],
  ["COC(=O)C1=COC(OC2OC(CO)C(O)C(O)C2O)C2C(CO)=CCC12 (stereo not given) [Geniposide]", 4.53],
  ["CC(=O)CCCC(=O)O", 1.24],
  ["CCCCCN=C(N)NN=Cc1c[nH]c2ccc(OC)cc12", 2.84],
  ["COc1cc2nc(N3CCN(C(=O)c4ccco4)CC3)nc(N)c2cc1OC", 3.75],
  ["CCN1CCCC1CNC(=O)c1c(O)c(Cl)cc(Cl)c1OC (stereo not given) [Raclopride]", 2.11],
  ["N=C1NC(=O)C(c2ccccc2)O1 (stereo not given)", 1.39],
  ["Nc1nc(Cl)nc2c1ncn2C1OC(CO)C(O)C1O (stereo not given)", 2.69],
  ["CS(=O)CCCCC(=NO)SC1OC(CO)C(O)C(O)C1O (stereo not given)", 6.61],
  ["CC(=O)NC(Cc1c[nH]c2ccccc12)C(=O)O (stereo not given)", 2.81],
  ["CCCc1nc(C)c2c(=O)[nH]c(-c3cc(S(=O)(=O)N4CCN(CC)CC4)ccc3OCC)nn12", 1.7]
]}

Hey, just so you know, these numbers are from the RepoRT retention time repository.
